System: SK-Br-3 (mammary cancer)
assay.procedure: Cytocidal action/growth inhibition, SK-Br-3
Assay type: cell-based
settings: Homo sapiens, SK-BR-3; 72 h; Table 4; read-out: I50
quantity.kind: IC50 (nM)

- given.smiles: "COC(=O)c1cc(I)c(Oc2ccc(OC)cc2)c(I)c1"
  experimental.target: "SK-Br-3 (mammary cancer)"
  quantity.kind: "IC50"
  value.measured: 600
